- SUBJECT_OF_TEST: mTOR (Homo sapiens, UniProt P42345)
- Construct: purchased Invitrogen (Carlsbad, Calif.)
- Sequence (P42345 1360-2549 limits assumed): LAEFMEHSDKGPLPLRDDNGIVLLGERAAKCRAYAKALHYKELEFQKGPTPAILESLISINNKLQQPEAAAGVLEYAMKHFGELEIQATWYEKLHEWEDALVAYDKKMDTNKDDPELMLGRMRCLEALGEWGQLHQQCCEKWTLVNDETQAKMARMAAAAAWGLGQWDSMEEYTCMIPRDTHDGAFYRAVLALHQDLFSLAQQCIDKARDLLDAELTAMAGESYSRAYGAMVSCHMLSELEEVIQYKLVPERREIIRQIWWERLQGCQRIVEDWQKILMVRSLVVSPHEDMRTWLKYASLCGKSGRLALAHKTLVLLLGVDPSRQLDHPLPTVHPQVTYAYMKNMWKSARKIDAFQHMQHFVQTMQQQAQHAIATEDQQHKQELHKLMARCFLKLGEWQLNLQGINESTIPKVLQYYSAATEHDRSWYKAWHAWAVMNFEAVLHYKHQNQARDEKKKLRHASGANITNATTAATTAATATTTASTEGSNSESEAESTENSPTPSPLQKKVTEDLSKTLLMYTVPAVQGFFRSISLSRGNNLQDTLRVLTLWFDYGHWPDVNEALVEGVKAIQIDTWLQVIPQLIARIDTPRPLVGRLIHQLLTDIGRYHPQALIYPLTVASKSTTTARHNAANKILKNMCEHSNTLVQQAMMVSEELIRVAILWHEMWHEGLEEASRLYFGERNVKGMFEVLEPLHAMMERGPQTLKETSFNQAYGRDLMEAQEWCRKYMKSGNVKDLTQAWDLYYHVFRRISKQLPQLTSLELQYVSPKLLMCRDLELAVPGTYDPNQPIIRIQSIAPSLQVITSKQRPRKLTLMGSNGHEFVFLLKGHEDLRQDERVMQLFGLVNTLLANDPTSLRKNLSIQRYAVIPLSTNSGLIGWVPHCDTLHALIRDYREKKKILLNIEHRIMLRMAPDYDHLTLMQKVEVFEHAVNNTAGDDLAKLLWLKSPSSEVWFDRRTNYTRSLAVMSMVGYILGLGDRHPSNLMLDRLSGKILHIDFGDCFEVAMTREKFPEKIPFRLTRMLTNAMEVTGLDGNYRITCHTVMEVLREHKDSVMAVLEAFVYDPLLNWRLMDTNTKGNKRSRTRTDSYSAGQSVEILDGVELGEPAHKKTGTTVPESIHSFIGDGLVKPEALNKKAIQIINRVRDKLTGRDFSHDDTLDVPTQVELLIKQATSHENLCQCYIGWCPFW
- ASSAY_PROCEDURE: In vitro mTOR assay (Lanthascreen)
- Format: biochemical
- CONDITION: average if run more than once
RECORDED_ENDPOINT: IC50 (µM)
Give bare numbers, in µM.

Consider the worked cases shown below.
• COCCN(C)S(=O)(=O)Nc1cc(-c2ccc3nccc(N4CCOCC4)c3c2)cnc1Cl = 0.0169
• O=S1(=O)CCC(Oc2ccnc3ccc(-c4cnc(Cl)c(NS(=O)(=O)c5ccc(F)cc5)c4)cc23)C1 (centres unmarked) = 0.0126
• CN(C)S(=O)(=O)Nc1cc(-c2ccc3ncc(=O)n(-c4ccccc4)c3c2)cnc1Cl = 0.0012
• COc1ccc(-n2c(=O)cnc3ccc(-c4cnc(Cl)c(NS(=O)(=O)N(C)C)c4)cc32)cn1 = 0.0023
• CN(C)c1ccnc2ccc(-c3cnc(Cl)c(NS(=O)(=O)c4ccc(F)cc4)c3)cc12 = 0.111

Return reported IC50 values for all items listed beneath this line.
1. O=S(=O)(Nc1cc(-c2ccc3c(c2)OCCO3)cnc1Cl)c1ccc(F)cc1
2. CC(c1ccccc1)N1CCN(c2ccnc3ccc(-c4cnc(Cl)c(NS(C)(=O)=O)c4)cc23)CC1 (centres unmarked)

Resp:
1. 0.0527
2. 0.0821

Return reported IC50 values for all items listed beneath this line.
1. CS(=O)(=O)Nc1cc(-c2ccc3ncc(N4CCOCC4)nc3c2)cnc1Cl
2. O=S(=O)(Nc1cc(-c2ccc3nccc(OCC4CCSCC4)c3c2)cnc1Cl)c1ccc(F)cc1

Resp:
1: 0.0283; 2: 0.04

Return reported IC50 values for all items listed beneath this line.
1. O=S(=O)(Nc1cc(-c2ccc3nccc(N4CCOCC4)c3c2)cnc1Cl)c1cccnc1
2. CCN(CCC#N)c1ccnc2ccc(-c3cnc(Cl)c(NS(C)(=O)=O)c3)cc12
3. O=S(=O)(Nc1cc(-c2ccc3ncc(-c4ccncc4)nc3c2)cnc1Cl)c1ccc(F)cc1

Resp:
[0.0036, 0.0117, 0.0057]

###

- SUBJECT_OF_TEST: mTOR (Homo sapiens, UniProt P42345)
- Construct: purchased Invitrogen (Carlsbad, Calif.)
- ASSAY_PROCEDURE: In vitro mTOR assay (Lanthascreen)
- Type: biochemical
- CONDITION: average if run more than once
Exercise: for every item that follows, state its recorded IC50.
Answers are plain numbers, in µM.

Return reported IC50 values for all items listed beneath this line.
1. CN(C)S(=O)(=O)Nc1cc(-c2ccc3nccc(N4CCOCC4)c3c2)cnc1Cl [Example 122]
2. CS(=O)(=O)Nc1cc(-c2ccc3nccc(C4=CCOCC4)c3c2)cnc1Cl [Example 107]
3. C[C@@H]1CN(c2ccnc3ccc(-c4cnc(Cl)c(NS(C)(=O)=O)c4)cc23)C[C@@H](C)O1 [Example 110]

Resp:
0.0182
0.004
0.0051

###

- SUBJECT_OF_TEST: PI3Kα (Homo sapiens, UniProt P42336)
- Construct: Full length p110 subunits of PI3K α, β and δ, N-terminally labeled with polyHis tag; polyHis (N); made in house; host or cells: Sf9 insect cells (baculovirus)
- Sequence (P42336 whole entry): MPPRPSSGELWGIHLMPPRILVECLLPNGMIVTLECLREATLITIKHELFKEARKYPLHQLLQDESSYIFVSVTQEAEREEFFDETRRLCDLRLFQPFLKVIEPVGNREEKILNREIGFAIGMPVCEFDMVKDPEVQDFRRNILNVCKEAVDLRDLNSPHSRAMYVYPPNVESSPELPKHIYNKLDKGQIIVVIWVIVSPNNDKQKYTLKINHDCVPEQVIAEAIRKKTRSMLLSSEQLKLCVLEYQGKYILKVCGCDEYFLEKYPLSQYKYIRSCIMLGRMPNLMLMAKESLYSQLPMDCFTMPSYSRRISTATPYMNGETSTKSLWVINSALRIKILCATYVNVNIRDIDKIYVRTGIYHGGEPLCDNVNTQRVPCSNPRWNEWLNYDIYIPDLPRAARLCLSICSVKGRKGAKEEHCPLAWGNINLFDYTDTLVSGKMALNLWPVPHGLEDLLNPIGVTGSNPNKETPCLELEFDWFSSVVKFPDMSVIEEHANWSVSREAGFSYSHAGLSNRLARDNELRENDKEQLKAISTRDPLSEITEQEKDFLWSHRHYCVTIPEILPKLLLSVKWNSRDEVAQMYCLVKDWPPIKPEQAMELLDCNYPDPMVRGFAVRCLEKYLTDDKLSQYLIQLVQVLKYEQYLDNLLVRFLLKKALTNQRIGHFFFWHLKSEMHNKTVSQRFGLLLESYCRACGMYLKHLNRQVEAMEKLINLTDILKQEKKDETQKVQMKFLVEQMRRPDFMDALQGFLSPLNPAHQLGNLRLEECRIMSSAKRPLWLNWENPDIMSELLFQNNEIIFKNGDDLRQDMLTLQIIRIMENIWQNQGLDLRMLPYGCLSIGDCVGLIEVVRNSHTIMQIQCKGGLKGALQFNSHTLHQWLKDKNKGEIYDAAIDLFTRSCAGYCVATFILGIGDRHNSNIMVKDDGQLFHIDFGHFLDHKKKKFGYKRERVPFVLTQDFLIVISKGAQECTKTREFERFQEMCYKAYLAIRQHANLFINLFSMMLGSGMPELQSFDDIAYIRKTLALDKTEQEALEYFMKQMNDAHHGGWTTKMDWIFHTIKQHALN
- Sequence (P27986 whole entry partner): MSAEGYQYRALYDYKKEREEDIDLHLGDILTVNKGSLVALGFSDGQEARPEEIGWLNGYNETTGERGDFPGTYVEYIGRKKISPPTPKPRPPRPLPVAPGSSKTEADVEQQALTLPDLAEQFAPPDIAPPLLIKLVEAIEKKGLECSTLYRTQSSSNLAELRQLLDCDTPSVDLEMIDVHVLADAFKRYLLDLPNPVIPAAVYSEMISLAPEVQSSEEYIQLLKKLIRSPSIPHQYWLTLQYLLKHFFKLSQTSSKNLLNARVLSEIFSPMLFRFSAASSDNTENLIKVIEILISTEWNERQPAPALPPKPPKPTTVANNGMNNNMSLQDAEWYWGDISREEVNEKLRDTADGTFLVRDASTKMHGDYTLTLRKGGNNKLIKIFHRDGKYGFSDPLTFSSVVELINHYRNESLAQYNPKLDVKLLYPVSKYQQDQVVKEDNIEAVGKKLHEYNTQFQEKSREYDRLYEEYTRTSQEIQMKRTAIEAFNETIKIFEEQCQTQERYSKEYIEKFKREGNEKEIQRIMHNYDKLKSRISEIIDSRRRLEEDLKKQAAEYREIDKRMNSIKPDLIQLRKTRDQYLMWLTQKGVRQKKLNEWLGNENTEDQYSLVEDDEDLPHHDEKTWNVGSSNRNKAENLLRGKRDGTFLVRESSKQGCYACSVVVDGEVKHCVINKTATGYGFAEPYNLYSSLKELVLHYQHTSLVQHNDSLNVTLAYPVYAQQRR
- ASSAY_PROCEDURE: In vitro PI3K AlphaScreen assay
- Type: biochemical
- CONDITION: average if run more than once
RECORDED_ENDPOINT: log10 of Ki (log10 of the value in µM)
Log10 applied to Ki; unit prior to transform: µM.

Return reported log10 of Ki values for all items listed beneath this line.
1. COCCN(C)S(=O)(=O)Nc1cc(-c2ccc3ncc(=O)n(-c4ccccc4)c3c2)cnc1Cl
2. COCCN(C)S(=O)(=O)Nc1cc(-c2ccc3nccc(N4CCOCC4)c3c2)cnc1Cl
3. CN(C)S(=O)(=O)Nc1cc(-c2ccc3ncc(=O)n(-c4ccccc4)c3c2)cnc1Cl
4. COC(C)(C)CNc1ccnc2ccc(-c3cnc(Cl)c(NS(C)(=O)=O)c3)cc12
5. CN(Cc1cccc(F)c1)c1ccnc2ccc(-c3cnc(Cl)c(NS(C)(=O)=O)c3)cc12
6. CCN(Cc1noc(C2CC2)n1)c1ccnc2ccc(-c3cnc(Cl)c(NS(C)(=O)=O)c3)cc12

Resp:
[-2.49, -2.27, -2.60, -1.08, -1.80, -1.74]

Return reported log10 of Ki values for all items listed beneath this line.
1. O=S(=O)(Nc1cc(N2CCc3ncccc3C2)cnc1Cl)c1ccc(F)cc1
2. CN(C)S(=O)(=O)Nc1cc(-c2ccc3nccc(Cl)c3c2)cnc1Cl
3. C[C@@H]1CN(c2ccnc3ccc(-c4cnc(Cl)c(NS(C)(=O)=O)c4)cc23)C[C@H](C)O1
4. CC(c1ccccc1)N1CCN(c2ccnc3ccc(-c4cnc(Cl)c(NS(C)(=O)=O)c4)cc23)CC1 (centres unmarked)

Resp:
1: -1.20; 2: -2.48; 3: -2.49; 4: -1.87
